Measurement type: melting point

Answered examples (6):
INSERT INTO results (compound, measurement_type, experimental_value) VALUES
  ('COc1cc2cc(C(=O)N3CC(COS(C)(=O)=O)c4c3cc(N)c3ccccc43)[nH]c2c(OC)c1OC (centres undefined)', 'melting point', '> 260 °C'),
  ('O=C1c2c(O)cccc2OC12CC2', 'melting point', '100 to 109 °C'),
  ('NS(=O)(=O)c1cccc(-c2cccc(-c3nc(-c4ccc(F)cc4)cc(C(F)(F)F)n3)c2)c1', 'melting point', '208 °C'),
  ('COC(=O)C1CC(C#N)(c2cccc3ccccc23)CCC1=O (centres undefined)', 'melting point', '166 to 168 °C'),
  ('CCOP(=O)(/C=C/c1cn(-c2ccccc2)nc1OCc1ccc(OCc2nc(-c3ccc(C(N)=O)cc3)oc2C)c(OC)c1)OCC', 'melting point', '146 to 148 °C'),
  ('CC(C)Oc1ncc(C#N)c(O)n1', 'melting point', '166 °C');

Query string: Which melting point reading was recorded for the compound COC(=O)c1ccc(I)cc1Nc1ccccc1C(=O)O ?
Result string: 206 to 208 °C

Query string: Which melting point reading was recorded for the compound CC1(C)CC[C@@H](C(=O)O)[C@@H]1SC(=O)c1ccccc1 (relative stereo) ?
Result string: 131 °C

Query string: Which melting point reading was recorded for the compound COc1cc(OC)c(-c2ccc(O)c(C34CC5CC(CC(C5)C3)C4)c2)cc1C=C1SC(C2CCNC2)=NC1=O (centres undefined) ?
Result string: 343 to 345 °C
